FXa assay OD, 10 nM Ab, 10 nM TFPI values for the binders below.
SYSTEM: recombinant human TFPI (tissue factor pathway inhibitor) (human, UniProt P10646 29-304)
PROTOCOL: cell-based or functional assay
Write no unit; give the number alone.

Below, 2 binders whose answers are already recorded.
| BINDER | NUMERIC READOUT |
| --- | --- |
| clone 3131 (antibody, V domains shown) VH: EVQLVESGGGLVKPGGSLRLSCAASGFTFSSYAMSWVRQAPGKGLEWVSTITTGGSYTYYADSVQGRFTISRDNAKNSLYLQMNSLRAEDTAVYYCARQDGQFLMDYWGQGTLVTVSS VL: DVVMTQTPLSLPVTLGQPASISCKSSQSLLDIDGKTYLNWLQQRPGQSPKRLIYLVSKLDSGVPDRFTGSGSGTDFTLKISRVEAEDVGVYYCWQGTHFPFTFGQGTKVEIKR | 0.115 |
| clone 3115 (antibody, V domains shown) VH: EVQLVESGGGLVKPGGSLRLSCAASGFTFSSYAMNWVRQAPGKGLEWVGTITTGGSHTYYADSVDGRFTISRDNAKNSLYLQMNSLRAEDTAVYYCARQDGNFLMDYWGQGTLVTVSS VL: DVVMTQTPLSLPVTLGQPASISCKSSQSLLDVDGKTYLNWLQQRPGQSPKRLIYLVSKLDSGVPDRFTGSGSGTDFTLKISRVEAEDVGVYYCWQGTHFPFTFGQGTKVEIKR | 0.125 |

Reported FXa assay OD, 10 nM Ab, 10 nM TFPI for clone 4141 (antibody, V domains shown) VH: EVQLVESGGGLVKPGGSLRLSCAASGFTFSSYAMNWVRQAPGKGLEWVGTITTGGSHTYYADSVEGRFTISRDNAKNSLYLQMNSLRAEDTAVYYCARQDGYFLMDYWGQGTLVTVSS VL: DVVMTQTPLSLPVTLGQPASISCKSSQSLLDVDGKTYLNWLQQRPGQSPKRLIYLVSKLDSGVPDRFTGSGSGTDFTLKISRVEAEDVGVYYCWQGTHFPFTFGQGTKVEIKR : what is it?
0.129

Would you mind doing clone 4017 (antibody, V domains shown) VH: EVQLVESGGGLVKPGGSLRLSCAASGFTFSSYAMNWVRQAPGKGLEWVGTITTGGSYTYYADSVQGRFTISRDNAKNSLYLQMNSLRAEDTAVYYCARQDGYFLMDYWGQGTLVTVSS VL: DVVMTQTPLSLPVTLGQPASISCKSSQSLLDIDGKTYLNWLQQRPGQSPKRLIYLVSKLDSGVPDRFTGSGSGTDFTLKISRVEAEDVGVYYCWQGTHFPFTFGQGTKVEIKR as well?
0.54
